Biological target: DLL3 endogenously expressed on NCI-H82 cells (UniProt Q9NYJ7)
Sequence (Q9NYJ7 27-618): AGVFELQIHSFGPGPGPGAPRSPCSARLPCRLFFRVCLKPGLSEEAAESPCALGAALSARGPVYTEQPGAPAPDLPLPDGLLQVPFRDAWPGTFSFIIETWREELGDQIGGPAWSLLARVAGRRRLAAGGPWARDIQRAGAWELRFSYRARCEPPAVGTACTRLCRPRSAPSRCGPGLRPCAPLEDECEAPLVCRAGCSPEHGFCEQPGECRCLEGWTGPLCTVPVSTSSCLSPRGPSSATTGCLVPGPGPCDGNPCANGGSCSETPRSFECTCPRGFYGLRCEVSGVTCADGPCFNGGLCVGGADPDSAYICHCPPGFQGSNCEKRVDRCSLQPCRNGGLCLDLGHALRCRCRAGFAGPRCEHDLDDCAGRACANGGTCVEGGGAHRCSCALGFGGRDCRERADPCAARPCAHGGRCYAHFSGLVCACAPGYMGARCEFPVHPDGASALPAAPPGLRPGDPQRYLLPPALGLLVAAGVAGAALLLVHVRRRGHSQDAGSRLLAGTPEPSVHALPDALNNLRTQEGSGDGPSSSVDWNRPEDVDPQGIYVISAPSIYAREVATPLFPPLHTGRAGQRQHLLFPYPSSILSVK
Assay: FACS on NCI-H82 cells; antibody 0.00128 nM
MFI: recorded values
Just the number.

Some binders with recorded MFI:
Q) // returns reported MFI for input Hab009VL1aVH1-hFc (Fc fusion, part only; not given: Linker and human IgG1 Fc, not shown: a dimerising Fc or GST) chain, part: DIVMTQSPLSLPVTPGEPASISCRASQTISDYLHWYLQKPGQSPQLLIKYASQSISGVPDRFSGSGSGSDFTLKISRVEAEDVGVYYCQQGHSFPLTFGQGTKLEIKEVQLVQSGAEVKKPGASVKVSCKASGYTFTSYWMHWVRQAPGQRLEWMGTIYPGNSDTRYNQKFKDRVTITADTSASTAYMELSSLRSEDTAVYYCTRSYDYGDLDYWGQGTTVTVSS
A) 122

Q) Same question for Hab014VL2VH1-hFc (scFv, part only; not given: scFv linker and human IgG1 Fc, V domains shown, not shown: another chain or arm of the molecule; a dimerising Fc or GST; small tags and cut ends) VL: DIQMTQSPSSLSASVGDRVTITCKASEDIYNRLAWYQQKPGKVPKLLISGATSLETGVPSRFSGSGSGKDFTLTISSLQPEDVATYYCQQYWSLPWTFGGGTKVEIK VH: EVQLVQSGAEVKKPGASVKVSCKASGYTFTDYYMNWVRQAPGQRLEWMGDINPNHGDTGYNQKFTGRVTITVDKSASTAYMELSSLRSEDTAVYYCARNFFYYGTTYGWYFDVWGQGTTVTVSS please.
A) 113

Okay, next one:
Q) // returns reported MFI for input Hab009VL3aVH1-hFc (scFv, part only; not given: VL-VH linker and human IgG1 Fc, V domains shown, not shown: another chain or arm of the molecule; a dimerising Fc or GST; small tags and cut ends) VL: DIVMTQSPLSLPVTPGEPASISCRASQTISDYLHWYLQKSHQSPQLLIKYASQSISGVPDRFSGSGSGTDFTLKISRVEAEDVGVYYCQQGHSFPLTFGQGTKLEIK VH: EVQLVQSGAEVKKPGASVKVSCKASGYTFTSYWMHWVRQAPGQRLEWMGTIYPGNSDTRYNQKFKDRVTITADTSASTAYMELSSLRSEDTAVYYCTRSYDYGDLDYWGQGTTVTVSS
A) 123
